# literature pull: GCN2 (Homo sapiens (Human), UniProt Q9P2K8) IC50
# Sequence (Q9P2K8 whole entry, species assumed): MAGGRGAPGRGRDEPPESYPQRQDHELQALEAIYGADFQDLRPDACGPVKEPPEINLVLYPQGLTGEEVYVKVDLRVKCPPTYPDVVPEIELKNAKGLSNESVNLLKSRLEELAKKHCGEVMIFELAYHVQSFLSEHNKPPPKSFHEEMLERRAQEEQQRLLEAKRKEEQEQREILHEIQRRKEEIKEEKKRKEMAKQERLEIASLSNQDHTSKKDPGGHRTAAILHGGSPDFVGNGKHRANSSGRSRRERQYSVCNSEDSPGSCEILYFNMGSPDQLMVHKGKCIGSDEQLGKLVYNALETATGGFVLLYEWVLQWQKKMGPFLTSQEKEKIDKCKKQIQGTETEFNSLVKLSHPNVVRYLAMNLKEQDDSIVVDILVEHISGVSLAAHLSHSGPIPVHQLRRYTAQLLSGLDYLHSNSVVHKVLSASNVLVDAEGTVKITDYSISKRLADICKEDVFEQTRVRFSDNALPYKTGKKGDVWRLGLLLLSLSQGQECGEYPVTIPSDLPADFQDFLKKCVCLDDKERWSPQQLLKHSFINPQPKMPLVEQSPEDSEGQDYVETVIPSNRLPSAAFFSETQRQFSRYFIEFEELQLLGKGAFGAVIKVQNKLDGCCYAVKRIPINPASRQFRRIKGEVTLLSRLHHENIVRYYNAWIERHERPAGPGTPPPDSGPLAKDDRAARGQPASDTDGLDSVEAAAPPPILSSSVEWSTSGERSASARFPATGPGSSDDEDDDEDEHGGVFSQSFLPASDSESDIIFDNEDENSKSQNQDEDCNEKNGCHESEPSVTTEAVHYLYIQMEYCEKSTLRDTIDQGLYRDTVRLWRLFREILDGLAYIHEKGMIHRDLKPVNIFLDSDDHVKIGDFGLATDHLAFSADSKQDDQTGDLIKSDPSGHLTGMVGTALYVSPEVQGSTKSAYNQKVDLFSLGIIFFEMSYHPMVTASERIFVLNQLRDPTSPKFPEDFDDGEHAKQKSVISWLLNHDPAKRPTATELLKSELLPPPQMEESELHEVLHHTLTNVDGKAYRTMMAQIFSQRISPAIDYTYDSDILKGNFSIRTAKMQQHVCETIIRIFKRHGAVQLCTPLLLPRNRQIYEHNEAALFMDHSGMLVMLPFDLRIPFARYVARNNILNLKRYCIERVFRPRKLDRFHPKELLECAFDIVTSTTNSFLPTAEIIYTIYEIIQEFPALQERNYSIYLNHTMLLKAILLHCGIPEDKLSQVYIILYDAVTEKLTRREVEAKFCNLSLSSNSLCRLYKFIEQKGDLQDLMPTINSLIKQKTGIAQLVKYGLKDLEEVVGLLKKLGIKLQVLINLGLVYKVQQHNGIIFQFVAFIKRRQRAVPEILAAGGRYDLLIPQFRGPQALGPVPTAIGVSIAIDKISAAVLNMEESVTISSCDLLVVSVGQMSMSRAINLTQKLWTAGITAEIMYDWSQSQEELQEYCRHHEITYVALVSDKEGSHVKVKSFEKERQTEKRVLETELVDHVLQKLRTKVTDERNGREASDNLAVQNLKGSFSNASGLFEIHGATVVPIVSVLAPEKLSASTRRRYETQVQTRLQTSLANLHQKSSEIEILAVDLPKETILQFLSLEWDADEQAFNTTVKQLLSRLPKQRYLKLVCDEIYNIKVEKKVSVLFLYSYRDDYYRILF

Example molecules with recorded IC50:
C[C@@H](NS(C)(=O)=O)[C@@H]1[C@H](C)N(c2ccnc(-c3cnc4ccc(C(F)(F)F)cn34)n2)CCN1C1CC1 | 0.01 to 0.1 µM
C[C@H]1[C@@H](c2cn[nH]c2)N(C2COC2)CCN1c1ccnc(-c2cnc3ccc(C(F)(F)F)cn23)n1 | 0.01 to 0.1 µM
COCCOc1ccc(-n2cnc3cnc(N[C@@H]4CC[C@@H](C(N)=O)C4)nc32)cc1 | 1 to 5 µM

Please look at the items below and tell me IC50 for each one, in order.
1. Cc1cc(-c2cnc3ccc(Cl)cn23)nc(N2C[C@@H](C)O[C@H](c3cn[nH]c3C)C2)n1
2. CC1C(C(N)=O)NCCN1c1ccnc(-c2cnc3ccc(Cl)cn23)n1 (centres unmarked)
3. FC(F)(F)c1ccc2ncc(-c3nccc(N4CCN[C@@H](c5cn[nH]c5)C4)n3)n2c1
4. CN(C)[C@H]1CC[C@H](Nc2ncc3cc(-c4c(F)ccc(NS(=O)(=O)c5cc(Cl)cc(CO)c5Cl)c4F)ccc3n2)CC1
5. CC(C)(C(=O)O)C1CCCN(c2ccnc(-c3cnc4ccc(Cl)cn34)n2)C1 (centres unmarked)
6. OCC1CN(c2ccnc(-c3cnc4ccc(C(F)(F)F)cn34)n2)CCC1O (centres unmarked)
7. Cc1cc(Nc2nc3cncc(-c4ccc(N5CCOCC5)cc4)n3n2)ccc1N1CCN(C)CC1
8. CN1CC(=O)Nc2cccc(c2)Nc2ncc(F)c(n2)Nc2ccc3c(c2)NC(=O)C(C)(O3)C1=O (racemic)

Key:
["0.01 to 0.1 µM", "0.01 to 0.1 µM", "< 0.01 µM", "0.00111 µM", "0.01 to 0.1 µM", "0.01 to 0.1 µM", "< 1 µM", "0.3 to 3 µM"]
